Test system: D545701-14 multi protease inhibitor resistant virus
Assay: Anti-viral activity against resistant virus D545701-14 in MT4 cells
Format: cell-based, HIV-1
Conditions: Human immunodeficiency virus 1, MT4, read-out: D545701-14 mutant - IC50
Recorded IC50 by entry

As a guide, the following entries are already answered.
STRUCTURE | READOUT NAME | RESULT
CC(C)CN(C[C@@H](O)[C@H](Cc1ccc(OC(=O)N(C)C)cc1)NC(=O)O[C@H]1CO[C@H]2OCC[C@H]21)S(=O)(=O)c1ccc2c(c1)OCO2 | IC50 | 10 to 100 nM
CC(C)CN(C[C@@H](O)[C@H](Cc1ccc(OCCNS(C)(=O)=O)cc1)NC(=O)O[C@H]1CO[C@H]2OCC[C@H]21)S(=O)(=O)c1ccc2c(c1)OCO2 | IC50 | 10 to 100 nM
CC(C)CN(C[C@@H](O)[C@H](Cc1ccc(OCCN/C(=N/C#N)Oc2ccccc2)cc1)NC(=O)O[C@H]1CO[C@H]2OCC[C@H]21)S(=O)(=O)c1ccc2c(c1)OCO2 | IC50 | 1 to 10 nM
CNC(=O)NCCOc1ccc(C[C@H](NC(=O)O[C@H]2CO[C@H]3OCC[C@H]32)[C@H](O)CN(CC(C)C)S(=O)(=O)c2ccc3c(c2)OCO3)cc1 | IC50 | 10 to 100 nM

Short answer for CNC(=O)Oc1ccc(C[C@H](NC(=O)O[C@H]2CO[C@H]3OCC[C@H]32)[C@H](O)CN(CC(C)C)S(=O)(=O)c2ccc3c(c2)OCO3)cc1 : IC50 was 1 to 10 nM
